These entries and their values trace back to patent US8415475B2.

- Tested on: Streptococcus pneumoniae (ATCC6305)
- procedure-text: In-vitro anti-bacterial microtitre plate assay, IC90, S. pneumoniae
- Format: cell-based
- condition-info: 90% inhibitory concentration for bacterial growth, 24 hours, resazurin fluorescence

molecule	IC90 values SPN 1 6305 (µg/mL)
CO/N=C/c1ccc2nc(OC)c(C(c3ccccc3)C(O)(CCN(C)C)c3cccc4ccccc34)cc2c1 (single isomer, unassigned) [Compound 26]	18.9
C=Cc1ccc2nc(OC)c(C(c3ccccc3)C(O)(CCc3ccc(F)cc3)CCN(C)C)cc2c1 (single isomer, unassigned) [Compound 7]	1.3
COc1nc2ccc(/C=N/O)cc2cc1C(c1ccccc1)C(O)(CCN(C)C)c1cccc2ccccc12 (single isomer, unassigned) [Compound 24]	1.6
